- system_under_test: T1, human TIGIT expressed on CHO-K1 cells (human, UniProt Q495A1 22-244)
- T1 construct: whole, on cells; also called human TIGIT-CHO-K1 cells; human TIGIT over-expressing cell line
- T1 sequence (looked up): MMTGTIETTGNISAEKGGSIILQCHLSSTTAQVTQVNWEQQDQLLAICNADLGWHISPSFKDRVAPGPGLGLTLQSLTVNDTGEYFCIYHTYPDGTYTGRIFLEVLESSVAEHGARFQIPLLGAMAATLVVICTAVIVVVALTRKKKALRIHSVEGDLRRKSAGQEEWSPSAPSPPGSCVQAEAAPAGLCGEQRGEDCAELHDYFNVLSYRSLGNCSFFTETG
- method_summary: flow cytometry on CHO-K1 cells expressing human TIGIT
quantity_name: EC50
Hey, just the number and the unit after it is fine.

Dear colleague, please send me the reported EC50 for TIGIT-3 chimeric antibody (antibody, human IgG1, kappa, V domains shown, also called 3VH + 3VL) VH: EVQLVESGGGLVQPGGSLKLSCAASGFTFSSYGMSWVRQTPDKRLELVATIKSDGGSTNLPDSVKGRFTISRDNAKNTLHLQMSSLKSEDTAMYYCVRGYFDYWGQGTSVTVSS VL: DIVMTQSHKFMSTSVGDRVSITCKASQDVKTAVAWYQQKPGQSPKLLIYWSSTRHTGVPDRFTGSRSLTDHTLTISSVQAEDLALYYCQQYYSTPYTFGGGTKLELKR when you can.
0.346 nM

Name the recorded EC50 of the binder listed here: huTIGIT-19-1 (antibody, human IgG1, kappa, V domains shown, Humanized IgG; also called 19VH4.M9 + 19VL1.M4) VH: QVQLVQSGAEVKKPGASVKVSCKASGYTFTRYSMYWVRQAPGQGLEWIAFIDAYSGGSTYNQRFRGKATLTVDTSISTAYMELSRLRSDDTAVYYCARGGDYGWYLGVWGQGTLVTVSS VL: DIQMTQSPSSLSASVGDRVTITCRPSENIYTYLSWYQQKPGKAPKLLIYNAKSLPSGVPSRFSGSGSGTDFTLTISSLQPEDFATYYCQHHYGNPLTFGQGTKVEIKR
0.294 nM
